test.system: murine IDO (Mus musculus)
Construct: expressed in transfected cells; host or cells: 293-T-REx cells (Invitrogen), doxycycline-inducible CMV-tet promoter
Sequence (P28776 whole entry): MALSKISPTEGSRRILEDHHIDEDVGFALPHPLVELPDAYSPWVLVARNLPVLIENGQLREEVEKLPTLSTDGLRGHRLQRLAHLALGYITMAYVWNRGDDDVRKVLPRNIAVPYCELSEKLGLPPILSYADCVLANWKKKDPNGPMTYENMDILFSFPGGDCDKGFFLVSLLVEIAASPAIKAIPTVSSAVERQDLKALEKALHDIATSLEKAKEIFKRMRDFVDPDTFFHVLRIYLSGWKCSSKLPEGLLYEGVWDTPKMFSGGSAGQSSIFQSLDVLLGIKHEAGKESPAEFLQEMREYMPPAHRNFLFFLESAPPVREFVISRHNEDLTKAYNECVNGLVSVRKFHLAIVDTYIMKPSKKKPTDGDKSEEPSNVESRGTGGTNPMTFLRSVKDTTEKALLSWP
experiment.description: Cell based IDO/kynurenine assay in 293-T-Rex cells expressing murine IDO
condition.description: Table 16; cells expressing murine IDO; read-out: mIDO EC50
This listing pairs compounds with measured EC50.

Sure, the documented EC50 for COc1ccccc1CON [compound 1678, O-(2-methoxybenzyl)hydroxylamine] is 10 to 100 µM

Sure, the documented EC50 for NOCCOc1ccccc1 [compound 1679, O-(2-phenoxyethyl)hydroxylamine] is < 10 µM

Sure, the documented EC50 for NOC(c1ccccc1)c1ccccc1 [compound 1922, O-benzhydrylhydroxylamine] is < 10 µM

Next:
Sure, the documented EC50 for NOCc1ccccc1 [compound 1666, O-benzylhydroxylamine] is < 10 µM

Sure, the documented EC50 for NOC1CCCCO1 (centres unmarked) [compound 1669] is < 10 µM

Sure, the documented EC50 for NOCc1c(F)c(F)c(F)c(F)c1F [compound 1667, O-(perfluorobenzyl)hydroxylamine] is 10 to 100 µM

Sure, the documented EC50 for NOCc1cccc(Cl)c1 [compound 1672, O-(3-chlorobenzyl)hydroxylamine] is < 10 µM

Data credit: patent US20130289083A1
